B1: HDV Ribozyme (parent)
chain: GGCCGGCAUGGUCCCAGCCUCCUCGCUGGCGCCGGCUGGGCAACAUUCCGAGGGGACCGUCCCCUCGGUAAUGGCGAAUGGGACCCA

# Variants of: B1
# Measurement notes: self-cleavage, relative activity (ratio to wild type); higher = more cleavage; co-transcriptional
self-cleavage overview
Measurement name: self-cleavage

- C3G G55U: 0.821
- C58A G76A: 1.02
- G1C C41G: 0
- G38C C84G: 0.0489
- C22U A42U: 0.138
- C22U G29A: 0.249
- A51C A70G: 0.849
- G10C U37A: 0.177
